src = ChEMBL document CHEMBL1142938

Target: Adenosine receptors; A1 & A3 (Homo sapiens) (UniProt P30542+P0DMS8)
Sequence (P30542 whole entry, looked up, one chain of several): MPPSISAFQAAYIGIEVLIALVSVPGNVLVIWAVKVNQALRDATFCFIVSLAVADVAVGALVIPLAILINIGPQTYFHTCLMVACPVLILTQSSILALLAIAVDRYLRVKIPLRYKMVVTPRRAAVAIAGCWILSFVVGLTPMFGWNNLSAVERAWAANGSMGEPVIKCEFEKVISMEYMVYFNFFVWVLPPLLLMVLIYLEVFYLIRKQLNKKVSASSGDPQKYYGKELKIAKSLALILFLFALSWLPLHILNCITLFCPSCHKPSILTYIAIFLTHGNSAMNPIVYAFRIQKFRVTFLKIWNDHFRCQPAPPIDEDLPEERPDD
Test: Selectivity for human adenosine A3 receptor over human adenosine A1 receptor
Assay type: protein assay
Field 'label' (enum: satisfied / not satisfied). Set to satisfied when Ratio Ki is strictly under 400; else not satisfied.

Worked examples follow.
- Substance smiles: "CONc1nc(C#Cc2ccc(C)cc2)nc2c1ncn2[C@@H]1O[C@H](CO)[C@@H](O)[C@H]1O"
  Class: "satisfied"
- Substance smiles: "CONc1nc(C#Cc2ccccc2)nc2c1ncn2[C@@H]1O[C@@H](CO)[C@@H](O)[C@H]1O"
  Class: "satisfied"
- Substance smiles: "CONc1nc(I)nc2c1ncn2[C@@H]1O[C@H](CO)[C@@H](O)[C@H]1O"
  Class: "satisfied"

Q. Here's an entry: CONc1nc(C#Cc2ccncc2)nc2c1ncn2[C@@H]1O[C@H](CO)[C@@H](O)[C@H]1O . Is its Ratio Ki below 400?
A. satisfied

Q. Strictly below 400 in Ratio Ki? CONc1nc(C#Cc2ccc(F)cc2)nc2c1ncn2[C@@H]1O[C@H](CO)[C@@H](O)[C@H]1O
A. not satisfied

Q. is_below(Ratio Ki, 400) for CNC(=O)[C@H]1O[C@@H](n2cnc3c(NOC)nc(C#Cc4ccccn4)nc32)[C@H](O)[C@@H]1O ?
A. not satisfied

Q. # TODO verify Ratio Ki < 400 strictly for this molecule: CONc1nc(C#Cc2ccccn2)nc2c1ncn2[C@@H]1O[C@H](CO)[C@@H](O)[C@H]1O
A. satisfied

Q. Answer whether the molecule CCNC(=O)[C@H]1O[C@@H](n2cnc3c(NOC)nc(C#Cc4ccc(C)cc4)nc32)[C@H](O)[C@@H]1O has Ratio Ki strictly less than 400
A. satisfied

Q. In plain terms, does CNC(=O)[C@H]1O[C@@H](n2cnc3c(NOC)nc(I)nc32)[C@H](O)[C@@H]1O come in under 400 for Ratio Ki?
A. satisfied

Q. Is it true that Ratio Ki reported for CONc1nc(C#Cc2ccc(OC)cc2)nc2c1ncn2[C@@H]1O[C@H](CO)[C@@H](O)[C@H]1O is less than 400?
A. not satisfied

Q. Is the reported Ratio Ki for CCNC(=O)[C@H]1O[C@@H](n2cnc3c(NOC)nc(C#Cc4ccc(C(C)=O)cc4)nc32)[C@H](O)[C@@H]1O strictly below 400?
A. satisfied

Q. Say whether its Ratio Ki is strictly beneath 400. Entry: CNC(=O)[C@H]1O[C@@H](n2cnc3c(NOC)nc(C#Cc4ccc(F)cc4)nc32)[C@H](O)[C@@H]1O
A. not satisfied

Q. Ratio Ki strictly < 400 for this molecule? CCCCCc1ccc(C#Cc2nc(NOC)c3ncn([C@@H]4O[C@H](CO)[C@@H](O)[C@H]4O)c3n2)cc1
A. satisfied

Q. Please determine if CONc1nc(C#Cc2ccc(C(C)=O)cc2)nc2c1ncn2[C@@H]1O[C@H](CO)[C@@H](O)[C@H]1O is below 400 in terms of Ratio Ki.
A. not satisfied

---

Kindly state pKi for each of the entries shown.
Molecular target: Adenosine receptor A3 (Homo sapiens, UniProt P0DMS8)
Sequence (P0DMS8 whole entry): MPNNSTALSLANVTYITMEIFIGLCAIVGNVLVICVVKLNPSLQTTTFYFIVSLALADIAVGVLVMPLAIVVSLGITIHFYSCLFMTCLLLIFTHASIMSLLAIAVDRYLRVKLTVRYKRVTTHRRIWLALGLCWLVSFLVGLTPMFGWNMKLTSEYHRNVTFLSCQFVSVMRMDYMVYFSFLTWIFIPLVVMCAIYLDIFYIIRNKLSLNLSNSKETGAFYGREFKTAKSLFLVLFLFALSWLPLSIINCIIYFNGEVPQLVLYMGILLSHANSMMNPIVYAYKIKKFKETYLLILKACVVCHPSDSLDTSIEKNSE
Test: Displacement of [3H]NECA from human recombinant adenosine A3 receptor expressed in CHO cells
Give bare numbers, as −log10 of the molar value.

Worked cases, answers included:
- Substance smiles: "CONc1nc(I)nc2c1ncn2[C@@H]1O[C@H](CO)[C@@H](O)[C@H]1O"
  Target of assay: "Adenosine receptor A3 (Homo sapiens, UniProt P0DMS8)"
  Readout value: 8.13
- Substance smiles: "CONc1nc(C#Cc2ccc(C)cc2)nc2c1ncn2[C@@H]1O[C@H](CO)[C@@H](O)[C@H]1O"
  Target of assay: "Adenosine receptor A3 (Homo sapiens, UniProt P0DMS8)"
  Readout value: 8.23

Now, please, on to the next compound.
Q. Suppose we examine the compound CONc1nc(C#Cc2ccncc2)nc2c1ncn2[C@@H]1O[C@H](CO)[C@@H](O)[C@H]1O ; what pKi value has been reported?
A. 8.22
